protocol: E. coli acrAB mutant growth effects, primary screen, E. coli filamentation inducers, strain DRC39, OD650, 24 h (AID 1178);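 further: growth measured as culture turbidity by optical density at 650 nm; test concentration not given here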
measurement.context: higher = more signal, called active from +8 up or from −8 down
Label true (1) when z-score is at or above 0.09; otherwise label false (0).

molecule	class
COC(=O)[C@@]1(Cc2ccc(OC)cc2)[C@H]2c3cc(C(=O)N(C)C)n(CCc4ccccn4)c3C[C@H]2CN1C(=O)c1ccccc1	false (0)
CCOC(=O)C[C@H]1[C@H](OC(=O)c2ccc(C(=O)c3ccccc3)cc2)[C@@H](NC(=O)c2ccccc2)c2cc(OCCCO)ccc2N1C(=O)c1ccc2ccccc2n1	false (0)
C=CC[C@@]1(C(=O)NCCN2CCOCC2)N=C(c2ccc(OCCCO)cc2)O[C@@H]1c1ccccc1N=[N+]=[N-]	true (1)
CC(C)C(=C=CC[C@@H](O)c1ccc(OCCO)cc1)C[C@@H](O)c1ccccn1	false (0)
C=C[C@H](CO)NS(=O)(=O)c1ccc(Br)cc1	true (1)

Does z-score meet or surpass 0.09 for COCCOC(=O)N1C(=O)[C@@]2(c3cc(C#CCC(C(=O)OC)C(=O)OC)ccc31)[C@H](C(=O)Nc1nc3ccccc3s1)[C@H]1C(=O)O[C@H](c3ccccc3)[C@H](c3ccccc3)N1[C@@H]2c1ccccc1OCCO ?
false (0)

Decide: z-score of O=C(NCCN1CCOCC1)C1N=C(c2ccc(OCCCO)cc2)N(c2ccccc2)O1 (stereo not given) >= 0.09?
true (1)

Does CC(C)=CCN[C@H](CO)c1ccccc1 have a reported z-score of at least 0.09?
false (0)

Hi team, for COC(=O)[C@@]1(Cc2ccc(OC)cc2)[C@H]2c3cc(C(=O)N4CCCC4)n(Cc4ccc(C)c(F)c4F)c3C[C@H]2CN1C(=O)c1ccccc1 , is the recorded z-score at or above 0.09?
true (1)

Threshold query (z-score >= 0.09) on O=C1C[C@]2(c3ccc([N+](=O)[O-])cc3)C(=O)N(CC(F)(F)F)c3cc(CO)ccc3[C@H]2N1C1CCCCC1
true (1)

For this molecule, is measured z-score 0.09 or higher? COc1ccc(CCNC(=O)[C@@H]2c3ccccc3C(=O)N(Cc3ccccc3Cl)[C@H]2c2ccc(CO)cc2)cc1
false (0)

API: above_or_equal(metric=z-score, cutoff=0.09) for item COc1cc2c(cc1OC)CN(C(=O)[C@H]1[C@@H]3C(=O)O[C@@H](c4ccccc4)[C@@H](c4ccccc4)N3[C@@H](c3ccc(O)cc3)[C@]13C(=O)Nc1ccc(C#CCCO)cc13)CC2
true (1)

In plain terms: is recorded z-score at least 0.09 for C=C(C(=O)CC[C@@H](OC(=O)c1cccnc1)c1ccccc1OCCO)C(C)C ?
true (1)

Is z-score at least 0.09? Consider CC(C)N1C(=O)[C@@]2(Cc3ccccc31)c1ccccc1C(=O)N(Cc1ccccc1Cl)[C@H]2c1ccc(CO)cc1
true (1)

Given [N-]=[N+]=NCc1ccccc1[C@@H]1OC(c2ccc(OCCCO)cc2)=N[C@]1(Cc1ccccc1)C(N)=O , state whether its z-score is at least 0.09.
true (1)

---

protocol: A549 lung cancer cell viability effects, profiling panel, resazurin fluorescence, 24 h, PK04 Diversity Set (AID 1171); further: test concentration not given here
measurement.context: higher = more signal, called active from +8 up or from −8 down
property.measured: z-score
Number, no unit, nothing else.

The examples below pair each entry with its known result.
compound	z-score
CC(CO)N1C(=O)[C@@H]2C3C(=O)OCCC/C=C\[C@H]3OC23C=CCN(C(C)(C)C)C(=O)[C@@H]13 (stereo partly specified)	-0.717
C=CCN1C(=O)[C@@]2(CC=C)N=C(c3ccc(OCCCO)cc3)O[C@H]2c2ccccc21	-2.08

Sample C=C(COC)/C(=C/C[C@@H](OC(C)=O)c1ccc(OCCO)cc1)c1cnc2ccccc2c1 — what was its z-score?
0.0521

So what's the measured z-score for this one? COCCOC(=O)N1C(=O)[C@@]2(c3cc(C#CCC(C(=O)OC)C(=O)OC)ccc31)[C@H](c1ccccc1OCCO)N1[C@H](c3ccccc3)[C@H](c3ccccc3)OC(=O)[C@H]1[C@@H]2C(=O)N1CCN(c2ncccn2)CC1
0.934

Which z-score is reported for this compound? CCOC(=O)C[C@H]1[C@H](OC(=O)c2ccc(C(=O)c3ccccc3)cc2)[C@@H](NC(=O)c2ccc3ccccc3n2)c2cc(OCCCO)ccc2N1C(=O)c1ccccc1
0.154

Tell me the measured z-score of CCOC(=O)C[C@H]1[C@H](OC(=O)c2ccc(C(=O)c3ccccc3)cc2)[C@@H](NC(=O)CC(C)C)c2cc(OCCCO)ccc2N1C(=O)c1ccc2ccccc2n1 , please.
0.59

---

protocol: binders from COS7 lysate, DM2A8 probe, primary screen, torsin A project, cell lysate, small-molecule microarray, fluorescence 635/667 (AID 1065)
measurement.context: higher = more signal, COS7 lysate expressing mutant human TOR1A
Each item that follows carries a reported composite z-score.
Respond using a number only.

composite z-score lookup needed for O=C1O[C@H](c2ccccc2)[C@H](c2ccccc2)N2[C@H]1[C@@H](C(=O)N1CCCCCCC1)[C@]1(C(=O)Nc3ccc(C#CCCO)cc31)[C@H]2c1ccccc1OCCO , thanks.
2.92

Item COCCCNC(=O)[C@]1(CCC(=O)OC(C)(C)C)N=C(c2ccc(OCCCO)cc2)O[C@@H]1c1ccccc1CN=[N+]=[N-] has what recorded composite z-score?
1.19

Which composite z-score reading was recorded for the molecule CC(C)NC(=O)[C@@]1(c2ccc([N+](=O)[O-])cc2)CC(=O)N(C2CCCCC2)[C@@H]1c1ccc(CO)cc1I ?
0.586

Which measured composite z-score value corresponds to CC(=O)n1cc(C(O)C2C=CC3C(=O)N(c4ccccc4)C(=O)C3N2Nc2ccc([N+](=O)[O-])cc2)c2ccccc21 (stereo not drawn) ?
1.44

Consider the molecule shown here: Cc1ccc(S[C@]2(C(=O)NC3CC3)CC(=O)N(Cc3ccccc3)[C@@H]2c2ccc(CO)cc2I)cc1 What is its recorded composite z-score?
-0.703

---

protocol: inhibitors of hydroxyurea-induced Chk1 phosphorylation, primary screen, imaging, HeLa, phospho-Chk1 nuclear intensity (AID 1187); further: test concentration not given here
measurement.context: hydroxyurea-induced phospho-Chk1 immunofluorescence imaging, higher = more signal
property.measured: z-score
Keep it simple and answer with nothing but the number.

Known z-score results, listed for orientation:
smiles.record	z-score
NC(=O)NCC#Cc1ccc2c(c1)[C@]1(C(=O)N2)[C@H](c2ccccc2OCCO)N2[C@H](c3ccccc3)[C@H](c3ccccc3)OC(=O)[C@H]2[C@@H]1C(=O)Nc1nc2ccccc2s1	0.212
COCCOC(=O)N1C(=O)[C@@]2(c3cc(C#CCCO)ccc31)[C@H](C(N)=O)[C@H]1C(=O)O[C@H](c3ccccc3)[C@H](c3ccccc3)N1[C@@H]2c1ccc(O)cc1	-0.0312
CC(C)[Si](C#Cc1ccc(Oc2ccccc2)cc1)(O[Si](C#Cc1ccc(Oc2ccccc2)cc1)(C(C)C)C(C)C)C(C)C	-0.556

Which z-score value belongs to O=C(NC1CC1)[C@@H]1c2ccccc2C(=O)N(Cc2ccccc2Cl)[C@H]1c1ccc(CO)cc1 ?
-1.13

Query (compound): C=CCN1C(=O)[C@@]2(CC=C)N=C(c3ccc(OCCCO)cc3)O[C@H]2c2ccccc21 ; field requested: z-score
-0.86

Using the record for CC(C)N1C(=O)c2ccccc2[C@](C)(C(=O)NCCN2CCOCC2)[C@@H]1c1ccc(CO)cc1 , report its z-score.
-0.332

Suppose we examine the compound COCCOC(=O)N1C(=O)[C@@]2(c3cc(C#CC4(O)CCCCCC4)ccc31)[C@H](c1ccc(OCCO)cc1)N1[C@H](c3ccccc3)[C@H](c3ccccc3)OC(=O)[C@H]1[C@@H]2C(=O)N1CCN(c2ncccn2)CC1 ; what z-score value has been reported?
0.22

---

protocol: basal RPMI8226 mitochondrial membrane potential changes, profiling panel, cell-based, JC-1 fluorescence, 24 h, 100 nL compound (AID 1169); further: test concentration not given here
measurement.context: RPMI8226 myeloma, JC-1 mitochondrial potential fluorescence, higher = more signal
property.measured: z-score
Quick one: just the number, no unit, thanks!

Given COc1ccc(CCNC(=O)[C@@H]2c3ccccc3C(=O)N(Cc3ccccc3Cl)[C@H]2c2ccc(CO)cc2)cc1 , state its recorded z-score.
-0.0929

Need z-score, item COCCOC(=O)N1C(=O)[C@@]2(c3ccccc31)[C@H](c1ccc(O)cc1)N1[C@H](c3ccccc3)[C@H](c3ccccc3)OC(=O)[C@H]1[C@@H]2C(=O)Nc1nc2ccccc2s1
-0.883

For CC1CC/C=C\[C@H]2OC34C=CCN(C(C)(C)C)C(=O)[C@H]3N(C(C)CO)C(=O)[C@@H]4C2C(=O)O1 (stereo partly specified) , what is its reported z-score?
-0.164

Fill in the blank: the reported z-score of CC(C)NC(=O)[C@@]1(C)c2ccccc2C(=O)N(Cc2cc(C(F)(F)F)cc(C(F)(F)F)c2)[C@H]1c1ccc(CO)cc1 is ____.
-0.382

State the recorded z-score for this entry: NC(=O)[C@@H]1[C@H]2C(=O)O[C@H](c3ccccc3)[C@H](c3ccccc3)N2[C@H](c2ccc(O)cc2)[C@@]12C(=O)Nc1ccccc12
-0.902

Consider the molecule C=CCOC(=O)[C@@H]1[C@H]2C(=O)O[C@H](c3ccccc3)[C@H](c3ccccc3)N2[C@H](c2ccc(OCCOC(=O)[C@H]3C[C@H]4C(=O)N5CCC[C@H]5C(=O)N4[C@H]3c3ccc(O)cc3)cc2)[C@@]12C(=O)Nc1ccc(I)cc12 and give its measured z-score.
-0.81
